# assay.target: binding partner of C5A (XPA23)
# protocol.details: Biacore
measurement.label: fold affinity vs original (fold)
The response must be a number in fold with no trailing unit.

{"binder": "C5A (XPA23) VH S105Q (antibody, V domains shown) VH: EVQLLESGGGLVQPGGSLRLSCAASGFTFSKYFMFWVRQAPGKGLEWVSVISPSGGMTRYADSVKGRFTISRDNSKNTLYLQMNSLRAEDTAVYYCARVGYGGNQDYWGQGTLVTVSS VL: DIQMTQSPSSVSASVGDRLTIICRASQDINRWLAWYQQTPGNAPKLLIHSATSLQSGVPSRFSGSGSGTDFTLTINSLQPEDFATYYCQQADSFPLTFGGGTKVEIK", "unit.name": "fold", "endpoint.value": 0.98}

Shift focus to the following entry.
QUERY: Using the record for C5A (XPA23) VH K31R (antibody, V domains shown) VH: EVQLLESGGGLVQPGGSLRLSCAASGFTFSRYFMFWVRQAPGKGLEWVSVISPSGGMTRYADSVKGRFTISRDNSKNTLYLQMNSLRAEDTAVYYCARVGYGGNSDYWGQGTLVTVSS VL: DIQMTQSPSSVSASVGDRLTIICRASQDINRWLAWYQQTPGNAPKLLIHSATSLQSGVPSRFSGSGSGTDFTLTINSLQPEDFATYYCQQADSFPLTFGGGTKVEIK , report its fold affinity vs original.
RESULT: 0.9
